Where do these numbers come from? They come from patent US20080032921A1.

molecular target: purified HLA DRB4*0101 (human); test: competition with 125I-labelled peptide for purified HLA
Item-by-item account of IC50
experimental.endpoint: IC50 (nM)

[[record]]
binder = "SLMLQIGNMISIWVSHS (modifications not checked) [Flu.NA.21 peptide …]"
meas_value = 746

[[record]]
binder = "IYQILSIYSTVASSLA (modifications not checked) [Flu.HA.529 peptide …]"
meas_value = 18

[[record]]
binder = "ILSIYSTVASSLALAI (modifications not checked) [Flu.HA.532 peptide …]"
meas_value = 824

